study_target: GST-Xa-hAAK1 (Homo sapiens)
Construct: made in house
assay_protocol: AAK1 kinase assay
Type: biochemical
study_conditions: ATP 22 μM; given as IC50 range
Measured IC50 by item

Example cases with answers are listed next.
{"molecule": "Cn1c(=O)c2cnccc2c2ccc(OCC(N)CC(F)(F)F)cc21 (single isomer, unassigned) [Example 135]", "study_target": "GST-Xa-hAAK1 (Homo sapiens)", "IC50": "10 to 100 nM"}
{"molecule": "Cn1c(=O)c2cnccc2c2cc(Cl)c(OCC(N)CCC(F)(F)F)cc21 (stereo not shown) [Example 115]", "study_target": "GST-Xa-hAAK1 (Homo sapiens)", "IC50": "1 to 10 nM"}
{"molecule": "COCCn1c(=O)c2c(C)nccc2c2cc(Cl)c(OC[C@@H](N)CC(C)C)cc21 [Example 79]", "study_target": "GST-Xa-hAAK1 (Homo sapiens)", "IC50": "1 to 10 nM"}
{"molecule": "Cc1nccc2c1c(=O)n(C)c1cc(OC[C@@H](N)CC(C)C)c(C(N)=O)cc21 [Example 94]", "study_target": "GST-Xa-hAAK1 (Homo sapiens)", "IC50": "10 to 100 nM"}
{"molecule": "Cn1c(=O)c2cnccc2c2cc(Br)c(OCC(N)CC(F)(F)F)cc21 (stereo not shown) [Example 140]", "study_target": "GST-Xa-hAAK1 (Homo sapiens)", "IC50": "1 to 10 nM"}

INPUT: IC50 lookup needed for Cc1nccc2c1c(=O)n(C)c1cc(OCC(O)CNC(C)C)c(Br)cc21 (stereo not shown) [Example 149] , thanks.
OUTPUT: 10 to 100 nM

INPUT: Also, Cc1nccc2c1c(=O)n(C)c1cc(OC[C@@H](N)CC(C)C)c(C(C)C)cc21 [Example 130] please.
OUTPUT: 10 to 100 nM

INPUT: Also, Cc1nccc2c1c(=O)n(C)c1cc(OC[C@@H](N)CC(C)C)c(C(F)F)cc21 [Example 27] please.
OUTPUT: < 1 nM

INPUT: Also, CC(C)C[C@H](N)COc1cc2c(cc1-c1ccc(F)cc1)c1ccncc1c(=O)n2C [Example 51] please.
OUTPUT: 100 to 2000 nM

INPUT: Also, Cc1nccc2c1c(=O)n(C)c1c(F)c(OC[C@@H](N)CC(C)C)c(Cl)cc21 [Example 107] please.
OUTPUT: 1 to 10 nM

INPUT: Also, CC(C)CC(C)COc1ccc2c3ccncc3c(=O)n(C)c2c1 (stereo not shown) [Example 150] please.
OUTPUT: 10 to 100 nM

* * *

study_target: GST-Xa-hAAK1 (Homo sapiens, UniProt Q2M2I8)
Construct: made in house
Sequence (Q2M2I8 whole entry): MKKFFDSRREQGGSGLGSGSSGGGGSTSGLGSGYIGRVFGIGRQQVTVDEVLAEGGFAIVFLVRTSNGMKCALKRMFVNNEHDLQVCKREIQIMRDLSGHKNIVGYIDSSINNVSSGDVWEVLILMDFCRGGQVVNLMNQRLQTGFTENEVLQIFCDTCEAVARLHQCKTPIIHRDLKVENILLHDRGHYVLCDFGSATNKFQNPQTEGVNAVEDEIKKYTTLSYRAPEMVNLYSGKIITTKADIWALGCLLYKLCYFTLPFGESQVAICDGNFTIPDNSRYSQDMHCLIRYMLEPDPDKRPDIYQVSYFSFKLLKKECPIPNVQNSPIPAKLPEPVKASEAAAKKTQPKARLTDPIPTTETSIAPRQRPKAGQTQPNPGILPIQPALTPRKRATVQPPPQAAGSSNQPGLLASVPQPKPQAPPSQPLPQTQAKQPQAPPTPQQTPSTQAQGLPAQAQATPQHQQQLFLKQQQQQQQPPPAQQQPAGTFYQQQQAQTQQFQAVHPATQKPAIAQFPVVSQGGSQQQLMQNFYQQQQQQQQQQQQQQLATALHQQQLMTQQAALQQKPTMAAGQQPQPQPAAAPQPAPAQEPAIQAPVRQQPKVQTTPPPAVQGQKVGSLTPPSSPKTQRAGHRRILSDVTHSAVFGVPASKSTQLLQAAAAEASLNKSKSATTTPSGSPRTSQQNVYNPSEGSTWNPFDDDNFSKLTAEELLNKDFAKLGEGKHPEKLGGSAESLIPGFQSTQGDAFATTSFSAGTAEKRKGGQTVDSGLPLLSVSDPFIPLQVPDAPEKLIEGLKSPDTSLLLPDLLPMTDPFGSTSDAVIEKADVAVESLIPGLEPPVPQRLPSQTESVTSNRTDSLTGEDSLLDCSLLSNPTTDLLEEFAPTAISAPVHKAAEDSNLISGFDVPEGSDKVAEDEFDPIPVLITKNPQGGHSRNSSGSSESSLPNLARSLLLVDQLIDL
assay_protocol: AAK1 kinase assay
Type: biochemical
study_conditions: ATP 22 μM; given as IC50 range
property_name: IC50

{"compound": "COCc1cc2c3ccnc(C)c3c(=O)n(C)c2cc1OC[C@@H](N)CC(C)C", "result": "10 to 100 nM"}
{"compound": "Cc1nccc2c1c(=O)n(C)c1c(F)c(OC[C@@H](N)CC(C)C)c(Br)cc21", "result": "10 to 100 nM"}
{"compound": "Cc1nccc2c1c(=O)n(C)c1cc(OC[C@@H](N)CC(C)C)c(Br)cc21", "result": "1 to 10 nM"}
{"compound": "Cc1nccc2c1c(=O)n(C)c1cc(OCC(O)COC(C)C)ccc21 (stereo not drawn)", "result": "100 to 2000 nM"}
{"compound": "Cc1nccc2c1c(=O)[nH]c1cc(OC[C@@H](N)CC(C)C)ccc12", "result": "1 to 10 nM"}

INPUT: IC50 lookup needed for CC(C)CC(C)COc1cc2c(cc1Br)c1ccncc1c(=O)n2C (stereo not drawn) , thanks.
OUTPUT: 10 to 100 nM

INPUT: Also, Cc1nccc2c1c(=O)n(C)c1cc(OCC(C)CC(C)C)ccc21 (stereo not drawn) please.
OUTPUT: 100 to 2000 nM

INPUT: Also, Cc1cc2c3ccncc3c(=O)n(C)c2cc1OC[C@@H](N)CC(C)C please.
OUTPUT: 1 to 10 nM

INPUT: Also, CC(C)C[C@H](N)COc1cc2[nH]c(=O)c3cnccc3c2cc1Cl please.
OUTPUT: < 1 nM

INPUT: Also, Cn1c(=O)c2cnccc2c2cc(Cl)c(OCC(N)CCC(F)(F)F)cc21 (stereo not drawn) [Example 117] please.
OUTPUT: 1 to 10 nM

INPUT: Also, CC(C)C[C@@H](COc1ccc2c3ccncc3c(=O)n(C)c2c1)N(C)C please.
OUTPUT: 10 to 100 nM

INPUT: Also, COc1c(OC[C@@H](N)CC(C)C)ccc2c1[nH]c(=O)c1c(C)nccc12 please.
OUTPUT: 100 to 2000 nM

INPUT: Also, COC(=O)c1cc2c3ccnc(C)c3c(=O)n(C)c2cc1OC[C@@H](N)CC(C)C please.
OUTPUT: 1 to 10 nM

INPUT: Also, Cc1nccc2c1c(=O)n(C)c1cc(OC[C@@H](N)CC(C)C)c(C3CC3)cc21 please.
OUTPUT: 1 to 10 nM

INPUT: Also, Cc1nccc2c1c(=O)n(CCO)c1cc(OC[C@@H](N)CC(C)C)c(Br)cc21 please.
OUTPUT: 1 to 10 nM

INPUT: Also, CC(C)CC(C)COc1ccc2c3ccncc3c(=O)n(C)c2c1 (stereo not drawn) [Example 157] please.
OUTPUT: 10 to 100 nM

INPUT: Also, CC(C)CCCOc1ccc2c3ccncc3c(=O)n(C)c2c1 please.
OUTPUT: 10 to 100 nM

INPUT: Also, CC(C)C[C@H](N)COc1cc2c(cc1Cl)c1ccncc1c(=O)n2C please.
OUTPUT: 1 to 10 nM
